Data credit: ChEMBL document CHEMBL5137083

Target: Melatonin receptor type 1A (Homo sapiens)
Sequence (P48039 whole entry): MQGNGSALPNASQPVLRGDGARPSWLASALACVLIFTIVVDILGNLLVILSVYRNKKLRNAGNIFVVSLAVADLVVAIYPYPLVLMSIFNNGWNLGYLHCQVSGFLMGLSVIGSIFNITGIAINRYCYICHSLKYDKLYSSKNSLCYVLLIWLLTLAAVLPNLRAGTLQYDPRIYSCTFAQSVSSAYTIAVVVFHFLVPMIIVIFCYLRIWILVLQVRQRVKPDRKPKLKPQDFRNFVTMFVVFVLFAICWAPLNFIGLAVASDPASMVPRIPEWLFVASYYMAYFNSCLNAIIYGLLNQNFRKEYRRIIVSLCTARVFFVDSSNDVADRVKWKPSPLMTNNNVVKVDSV
Assay: Displacement of 2-[125I]iodomelatonin from human melatonin MT1 receptor stably expressing in human HEK293 cell membranes in presence of light-activated compounds by radioligand based competition binding assay
Parameters: species or system Cell membrane
QUANTITY: Ki (nM)
Numbers only, in nM.

Q. Value lookup for Ki; key = "COc1ccc2c(c1)c(CCNC(C)=O)cn2C(=O)OCc1cc(OC)c(OC)cc1[N+](=O)[O-]"
A. 7.76

###

Molecular target: Melatonin receptor type 1B (Homo sapiens, UniProt P49286)
Sequence (P49286 whole entry): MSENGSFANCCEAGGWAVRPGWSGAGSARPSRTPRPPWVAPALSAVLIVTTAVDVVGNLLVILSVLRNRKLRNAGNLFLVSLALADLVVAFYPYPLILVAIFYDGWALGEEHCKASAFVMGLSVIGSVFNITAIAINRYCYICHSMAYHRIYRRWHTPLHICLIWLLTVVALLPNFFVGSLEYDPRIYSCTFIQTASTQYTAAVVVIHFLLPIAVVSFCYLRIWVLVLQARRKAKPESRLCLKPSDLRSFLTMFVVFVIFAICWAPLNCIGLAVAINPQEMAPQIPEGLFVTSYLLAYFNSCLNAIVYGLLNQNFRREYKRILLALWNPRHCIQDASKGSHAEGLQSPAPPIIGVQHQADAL
Experiment: Displacement of 2-[125I]iodomelatonin from human melatonin MT2 receptor stably expressing in human HEK293 cell membranes in presence of light-activated compounds by radioligand based competition binding assay
Design: species or system Cell membrane
QUANTITY: pKi
One number for each entry, as −log10 of the molar value.

Q. Quick one: pKi of "COc1ccc2c(c1)c(CCNC(C)=O)cn2C(=O)OCc1cc(OC)c(OC)cc1[N+](=O)[O-]" ?
A. 8.16
